Attribution: ChEMBL document CHEMBL1144754

- Assay system: Epidermal growth factor receptor (Homo sapiens, UniProt P00533)
- Sequence (P00533 whole entry): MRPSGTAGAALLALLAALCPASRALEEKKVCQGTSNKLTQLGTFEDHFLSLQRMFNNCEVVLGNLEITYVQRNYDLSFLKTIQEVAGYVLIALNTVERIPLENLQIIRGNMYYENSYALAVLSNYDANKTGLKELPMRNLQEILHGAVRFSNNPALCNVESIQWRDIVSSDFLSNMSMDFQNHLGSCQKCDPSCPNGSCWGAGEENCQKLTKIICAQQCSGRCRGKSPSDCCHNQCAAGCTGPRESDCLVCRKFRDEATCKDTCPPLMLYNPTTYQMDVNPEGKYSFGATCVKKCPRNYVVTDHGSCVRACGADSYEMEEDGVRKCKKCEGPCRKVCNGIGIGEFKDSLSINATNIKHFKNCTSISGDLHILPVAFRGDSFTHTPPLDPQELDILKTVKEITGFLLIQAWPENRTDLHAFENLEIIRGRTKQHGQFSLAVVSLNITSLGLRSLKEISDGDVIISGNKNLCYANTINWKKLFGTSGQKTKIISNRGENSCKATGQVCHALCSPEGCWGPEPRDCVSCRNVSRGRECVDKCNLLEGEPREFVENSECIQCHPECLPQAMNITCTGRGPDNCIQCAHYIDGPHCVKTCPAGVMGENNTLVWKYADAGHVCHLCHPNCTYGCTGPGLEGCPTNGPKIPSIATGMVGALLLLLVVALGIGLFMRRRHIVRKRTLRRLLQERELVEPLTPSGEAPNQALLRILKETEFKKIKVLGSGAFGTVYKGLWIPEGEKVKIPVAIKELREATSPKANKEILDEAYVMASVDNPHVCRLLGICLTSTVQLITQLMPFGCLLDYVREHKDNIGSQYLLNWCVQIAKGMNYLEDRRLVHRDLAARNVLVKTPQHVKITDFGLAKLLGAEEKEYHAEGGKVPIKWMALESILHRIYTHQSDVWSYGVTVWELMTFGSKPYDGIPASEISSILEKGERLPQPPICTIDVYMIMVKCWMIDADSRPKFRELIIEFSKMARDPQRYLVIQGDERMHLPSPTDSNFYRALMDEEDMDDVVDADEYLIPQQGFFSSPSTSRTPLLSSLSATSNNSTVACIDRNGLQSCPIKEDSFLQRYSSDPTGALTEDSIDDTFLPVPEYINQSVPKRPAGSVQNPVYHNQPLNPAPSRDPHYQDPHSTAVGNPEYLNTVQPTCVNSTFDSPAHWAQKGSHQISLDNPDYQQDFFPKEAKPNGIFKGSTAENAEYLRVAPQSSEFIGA
- Protocol: Inhibition of EGFR expressed in DHER14 cells by Western blot analysis
For each of the molecules below, state its IC50.

Examples with their reported IC50 follow.
COc1cc2nccc(Oc3ccc(NC(=O)Nc4ccc(F)cc4F)cc3F)c2cc1OC    > 500 nM
COc1cc2nccc(Oc3ccc(NC(=O)Nc4ccccc4F)cc3F)c2cc1OC    > 500 nM

// switching to the query molecule
Would you kindly share the measured IC50 for COc1cc2nccc(Oc3ccc(NC(=O)Nc4ccc(F)cc4)cc3F)c2cc1OC ?
> 500 nM

----------
- Protocol: Inhibition of PDGFR expressed in NIH cells by Western blot analysis
- Format: cell-based
For each of the compounds below, state its IC50.
Give bare numbers, in nM.

COc1cc2nccc(Oc3ccc(NC(=O)Nc4ccccc4F)cc3F)c2cc1OC    2

Fill in IC50 for each of the 2 compounds listed.
1. COc1cc2nccc(Oc3ccc(NC(=O)Nc4ccc(F)cc4)cc3F)c2cc1OC
2. COc1cc2nccc(Oc3ccc(NC(=O)Nc4ccc(F)cc4F)cc3F)c2cc1OC

1. 2
2. 2

----------
- Assay system: UniProt P08069
- Sequence (P08069 31-736 limits assumed): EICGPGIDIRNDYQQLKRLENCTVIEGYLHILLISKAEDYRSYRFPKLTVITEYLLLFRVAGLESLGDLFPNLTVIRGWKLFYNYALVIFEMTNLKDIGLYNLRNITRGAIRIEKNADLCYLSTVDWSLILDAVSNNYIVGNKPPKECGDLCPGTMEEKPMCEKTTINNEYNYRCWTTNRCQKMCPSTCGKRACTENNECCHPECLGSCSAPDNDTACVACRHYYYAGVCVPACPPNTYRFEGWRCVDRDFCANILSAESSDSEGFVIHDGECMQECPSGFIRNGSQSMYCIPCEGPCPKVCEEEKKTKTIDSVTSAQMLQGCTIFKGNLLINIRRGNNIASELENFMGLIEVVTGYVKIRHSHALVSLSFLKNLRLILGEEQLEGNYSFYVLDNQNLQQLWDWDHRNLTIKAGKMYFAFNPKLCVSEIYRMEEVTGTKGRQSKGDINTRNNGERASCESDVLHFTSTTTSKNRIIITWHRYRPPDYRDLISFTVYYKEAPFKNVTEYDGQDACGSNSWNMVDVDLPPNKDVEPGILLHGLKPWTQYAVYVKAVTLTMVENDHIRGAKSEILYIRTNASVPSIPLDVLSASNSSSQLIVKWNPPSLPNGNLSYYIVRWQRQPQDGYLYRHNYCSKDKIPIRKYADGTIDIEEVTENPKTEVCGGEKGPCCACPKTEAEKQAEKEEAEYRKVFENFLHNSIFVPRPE
- Sequence (P08069 741-1367 limits assumed): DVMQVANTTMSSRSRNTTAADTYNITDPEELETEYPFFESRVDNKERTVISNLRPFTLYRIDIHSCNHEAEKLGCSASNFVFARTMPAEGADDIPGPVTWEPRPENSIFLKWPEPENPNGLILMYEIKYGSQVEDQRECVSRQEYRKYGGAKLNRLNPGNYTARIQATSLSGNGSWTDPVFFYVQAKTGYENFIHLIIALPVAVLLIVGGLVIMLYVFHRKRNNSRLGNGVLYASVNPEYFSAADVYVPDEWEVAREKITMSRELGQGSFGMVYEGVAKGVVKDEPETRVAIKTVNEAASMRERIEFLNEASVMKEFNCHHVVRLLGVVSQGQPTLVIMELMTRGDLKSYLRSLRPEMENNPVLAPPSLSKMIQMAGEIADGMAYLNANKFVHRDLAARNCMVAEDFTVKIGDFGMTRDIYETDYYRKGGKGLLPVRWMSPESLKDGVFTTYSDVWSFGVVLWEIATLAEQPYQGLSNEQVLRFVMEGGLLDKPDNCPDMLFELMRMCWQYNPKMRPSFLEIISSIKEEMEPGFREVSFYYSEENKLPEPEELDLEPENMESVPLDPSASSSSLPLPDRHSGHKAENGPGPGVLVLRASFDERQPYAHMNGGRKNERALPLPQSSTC
pIC50: −log10 of the molar value.
For each of the compounds below, state its pIC50.

COc1cc2nccc(Oc3ccc(NC(=O)Nc4ccc(F)cc4)cc3F)c2cc1OC    < 5.70

// switching to the query compound
Param readout= pIC50; system= UniProt P08069; entry= COc1cc2nccc(Oc3ccc(NC(=O)Nc4ccc(F)cc4F)cc3F)c2cc1OC ; returns value.
< 5.70
